# TEST SYSTEM: recombinant human HDAC6 (Homo sapiens, UniProt Q9UBN7)
# EXPERIMENT DESCRIPTION: Enzymatic screening on recombinant human HDAC6
# Assay type: biochemical
# APPLIED CONDITIONS: Table 2; read-out: HDAC6 IC50
Measured IC50 values are reported for all entries that follow.

- SMILES: "CCN(CC)Cc1ccc(-c2nnc(Sc3c(F)cc(C(=O)NO)cc3F)n2C)o1"
  TEST SYSTEM: "recombinant human HDAC6 (Homo sapiens, UniProt Q9UBN7)"
  IC50 [nM]: 8
- SMILES: "Cn1c(Cc2cccc3cccnc23)nnc1Sc1c(F)cc(C(=O)NO)cc1F"
  TEST SYSTEM: "recombinant human HDAC6 (Homo sapiens, UniProt Q9UBN7)"
  IC50 [nM]: 45
- SMILES: "COC(=O)c1ccc(Cc2nnn(Cc3c(F)cc(C(=O)NO)cc3F)n2)cc1"
  TEST SYSTEM: "recombinant human HDAC6 (Homo sapiens, UniProt Q9UBN7)"
  IC50 [nM]: 32
- SMILES: "O=C(NO)c1cc(F)c(Cn2nnnc2-c2ccc(C(F)(F)F)cn2)c(F)c1"
  TEST SYSTEM: "recombinant human HDAC6 (Homo sapiens, UniProt Q9UBN7)"
  IC50 [nM]: 13

----------
# TEST SYSTEM: recombinant human HDAC6 (Homo sapiens)
# EXPERIMENT DESCRIPTION: Enzymatic screening on recombinant human HDAC6
# Format: biochemical
# APPLIED CONDITIONS: Table 2; read-out: HDAC6 IC50
pIC50: −log10 of the molar value.
pIC50 values by entry
VALUE TYPE: pIC50

- COMPOUND: "COc1ccc(C2(c3nnc(Sc4c(F)cc(C(=O)NO)cc4F)n3C)CC2)cc1 [compound 104]"
  RECORDED RESULT: 7.32
- COMPOUND: "O=C(NO)c1cc(F)c(Sc2nnc(CN3CCCCC3)n2-c2ccc(F)cc2)c(F)c1 [comp. 115]"
  RECORDED RESULT: 6.91
- COMPOUND: "O=C(O)c1cccc(-c2nnn(Cc3ccc(C(=O)NO)cc3)n2)c1 [comp. 163]"
  RECORDED RESULT: 7.92
- COMPOUND: "O=C(NO)c1ccc(Cc2nc(-c3cccs3)nn2-c2ccccn2)cc1 [comp. 52]"
  RECORDED RESULT: 6.46
- COMPOUND: "CCN(CC)Cc1cc(-c2nnc(Sc3c(F)cc(C(=O)NO)cc3F)n2C)c(C)o1 [comp. 213]"
  RECORDED RESULT: 7.89
- COMPOUND: "O=C(NO)c1ccc(Cc2nnc(-c3ccccc3)s2)cc1 [compound 190]"
  RECORDED RESULT: 8.52
- COMPOUND: "COc1ccc(-c2nnnn2Cc2ccc(C(=O)NO)cc2)cc1OCc1ccccc1 [comp. 71]"
  RECORDED RESULT: 7.28
- COMPOUND: "O=C(NO)c1cc(F)c(Cn2nnnc2-c2cccs2)c(F)c1 [comp. 15]"
  RECORDED RESULT: 7.72
- COMPOUND: "Cn1c(Sc2c(F)cc(C(=O)NO)cc2F)nnc1-c1ccc(CN2CCOCC2)o1 [comp. 204]"
  RECORDED RESULT: 8.15
- COMPOUND: "O=C(NO)c1ccc(Cn2nnc(-c3ccc(C(F)(F)F)cc3)n2)cc1 [comp. 23]"
  RECORDED RESULT: 7.96
- COMPOUND: "O=C(O)c1ccc(Cc2nnn(Cc3ccc(C(=O)NO)cc3)n2)cc1 [comp. 158]"
  RECORDED RESULT: 6.64
- COMPOUND: "CN(C)Cc1ccc(-c2nnc(Sc3c(F)cc(C(=O)NO)cc3F)n2C)o1 [comp. 206]"
  RECORDED RESULT: 8.15
- COMPOUND: "Cn1c(Sc2c(F)cc(C(=O)NO)cc2F)nnc1-c1cccc2ccccc12 [comp. 2]"
  RECORDED RESULT: 7.80
- COMPOUND: "O=C(NO)c1cc(F)c(Cn2nnc(-c3ccco3)n2)c(F)c1 [comp. 19]"
  RECORDED RESULT: 8.40

----------
# EXPERIMENT DESCRIPTION: Stability to Phase I metabolism in rat S9 liver fraction
# Format: in vitro ADME
# APPLIED CONDITIONS: after 90 min, 37° C.
Listed below: residual percentage in rat S9 fraction values for each entry.
VALUE TYPE: residual percentage in rat S9 fraction

- COMPOUND: "Cc1nc(N2CCOCC2)sc1-c1nnc(Cc2ccc(C(=O)NO)cc2)o1 [comp. 75]"
  RECORDED RESULT: "75%"
- COMPOUND: "O=C(NO)c1cc(F)c(Sc2nnc(-c3ccccc3F)n2Cc2ccco2)c(F)c1 [comp. 145]"
  RECORDED RESULT: "7%"
- COMPOUND: "Nc1ccc(-c2nnn(Cc3c(F)cc(C(=O)NO)cc3F)n2)cc1 [comp. 171]"
  RECORDED RESULT: "48%"
- COMPOUND: "O=C(NO)c1cc(F)c(Cn2nnc(-c3ncccn3)n2)c(F)c1 [comp. 7]"
  RECORDED RESULT: "96%"
- COMPOUND: "Cn1c(Sc2c(F)cc(C(=O)NO)cc2F)nnc1-c1cccs1 [comp. 17]"
  RECORDED RESULT: "71%"
- COMPOUND: "Cn1c(Sc2c(F)cc(C(=O)NO)cc2F)nnc1-c1ncccc1F [comp. 180]"
  RECORDED RESULT: "70%"
- COMPOUND: "Cc1cc(-c2nnc(Sc3c(F)cc(C(=O)NO)cc3F)n2C)nn1C [comp. 100]"
  RECORDED RESULT: "30%"
- COMPOUND: "Cn1c(Sc2c(F)cc(C(=O)NO)cc2F)nnc1-c1ccc(CN2CCCCC2)cc1 [comp. 16]"
  RECORDED RESULT: "74%"

----------
# TEST SYSTEM: recombinant human HDAC6 (Homo sapiens, UniProt Q9UBN7)
# EXPERIMENT DESCRIPTION: Enzymatic screening on recombinant human HDAC6
# Format: biochemical
# APPLIED CONDITIONS: Table 3; read-out: HDAC6 IC50
VALUE TYPE: IC50

- COMPOUND: "CCN(CC)S(=O)(=O)c1cccc(-c2nnc(Sc3ccc(C(=O)NO)cc3)n2C)c1 [comp. 66]"
  RECORDED RESULT: "6 nM"
- COMPOUND: "Cn1c(Sc2ccc(C(=O)NO)cc2)nnc1-c1cccs1 [comp. 10]"
  RECORDED RESULT: "9 nM"
- COMPOUND: "O=C(NO)c1cc(F)c(Cn2nnc(-c3ccccn3)n2)c(F)c1 [comp. 6]"
  RECORDED RESULT: "7 nM"
- COMPOUND: "O=C(NO)c1cc(F)c(Cn2nnc(-c3ccco3)n2)c(F)c1 [comp. 19]"
  RECORDED RESULT: "4 nM"

----------
# TEST SYSTEM: recombinant human HDAC6 (Homo sapiens)
# Sequence (Q9UBN7 1-1215): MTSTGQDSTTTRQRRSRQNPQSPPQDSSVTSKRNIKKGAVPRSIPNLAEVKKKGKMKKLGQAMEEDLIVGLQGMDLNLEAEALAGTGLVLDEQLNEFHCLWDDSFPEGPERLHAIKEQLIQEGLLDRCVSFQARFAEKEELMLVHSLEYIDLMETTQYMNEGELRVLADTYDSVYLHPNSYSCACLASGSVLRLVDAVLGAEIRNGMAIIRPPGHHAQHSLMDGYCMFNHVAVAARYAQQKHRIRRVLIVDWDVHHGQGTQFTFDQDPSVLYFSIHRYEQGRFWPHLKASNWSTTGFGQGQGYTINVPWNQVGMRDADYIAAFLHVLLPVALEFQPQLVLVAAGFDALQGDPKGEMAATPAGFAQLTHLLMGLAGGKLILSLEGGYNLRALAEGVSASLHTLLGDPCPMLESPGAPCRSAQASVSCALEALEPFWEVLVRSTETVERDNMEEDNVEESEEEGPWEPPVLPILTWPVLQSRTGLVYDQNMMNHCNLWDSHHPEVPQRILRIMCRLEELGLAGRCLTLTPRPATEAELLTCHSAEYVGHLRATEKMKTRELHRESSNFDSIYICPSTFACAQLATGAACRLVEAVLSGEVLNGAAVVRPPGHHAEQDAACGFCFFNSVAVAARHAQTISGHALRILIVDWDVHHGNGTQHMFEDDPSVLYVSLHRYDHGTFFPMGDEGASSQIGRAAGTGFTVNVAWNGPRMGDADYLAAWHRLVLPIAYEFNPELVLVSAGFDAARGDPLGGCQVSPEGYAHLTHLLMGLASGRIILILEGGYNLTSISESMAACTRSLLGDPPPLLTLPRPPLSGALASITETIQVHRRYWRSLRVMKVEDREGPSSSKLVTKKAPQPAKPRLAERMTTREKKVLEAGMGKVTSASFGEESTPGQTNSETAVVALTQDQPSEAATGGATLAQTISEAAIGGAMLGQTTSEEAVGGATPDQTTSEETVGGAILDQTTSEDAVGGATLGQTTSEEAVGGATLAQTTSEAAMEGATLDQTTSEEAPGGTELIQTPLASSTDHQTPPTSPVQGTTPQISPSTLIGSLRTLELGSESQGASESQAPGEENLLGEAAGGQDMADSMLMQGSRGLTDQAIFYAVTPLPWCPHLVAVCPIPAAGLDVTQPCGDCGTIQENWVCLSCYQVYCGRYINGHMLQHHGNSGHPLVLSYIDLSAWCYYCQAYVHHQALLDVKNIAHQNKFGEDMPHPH
# EXPERIMENT DESCRIPTION: Enzymatic screening on recombinant human HDAC6
# Assay type: biochemical
# APPLIED CONDITIONS: Table 2; read-out: HDAC6 IC50

- SMILES: "O=C(O)c1ccc(Cc2nnnn2Cc2ccc(C(=O)NO)cc2)cc1"
  SCALE UNIT: "nM"
  IC50: 1370
- SMILES: "O=C(NO)c1cc(F)c(Cn2nnc(-c3ccccn3)n2)c(F)c1"
  SCALE UNIT: "nM"
  IC50: 7
- SMILES: "CN(C)c1cccc(-c2nnc(Sc3c(F)cc(C(=O)NO)cc3F)n2C)c1"
  SCALE UNIT: "nM"
  IC50: 16
- SMILES: "COc1ccc(C(=O)N[C@@H](Cc2cscn2)c2nc(Cc3ccc(C(=O)NO)cc3)no2)cc1OC"
  SCALE UNIT: "nM"
  IC50: 81
- SMILES: "COc1ccc(C2(c3nnc(Sc4c(F)cc(C(=O)NO)cc4F)n3C)CCCCC2)cc1"
  SCALE UNIT: "nM"
  IC50: 56
- SMILES: "Nc1ccc(-c2nnn(Cc3ccc(C(=O)NO)cc3)n2)cc1"
  SCALE UNIT: "nM"
  IC50: 1
- SMILES: "COc1ccc(Cc2nnc(-c3ccc(C(=O)NO)cc3)o2)cc1OC"
  SCALE UNIT: "nM"
  IC50: 258
- SMILES: "O=C(NO)c1cc(F)c(Sc2nnc(CN3CCCC3)n2Cc2ccccc2)c(F)c1"
  SCALE UNIT: "nM"
  IC50: 25
- SMILES: "Cn1c(Sc2c(F)cc(C(=O)NO)cc2F)nnc1-c1ccccn1"
  SCALE UNIT: "nM"
  IC50: 8
- SMILES: "COc1ccc(-c2nnn(Cc3ccc(C(=O)NO)cc3)n2)cc1"
  SCALE UNIT: "nM"
  IC50: 5
- SMILES: "O=C(NO)c1ccc(Cn2nnnc2-c2ncc(C(F)(F)F)cc2N2CCOCC2)cc1"
  SCALE UNIT: "nM"
  IC50: 57
- SMILES: "O=C(NO)c1cc(F)c(Sc2nnc(-c3cccnc3)s2)c(F)c1"
  SCALE UNIT: "nM"
  IC50: 22
- SMILES: "O=C(NO)c1cc(F)c(Cn2nnnc2-c2ccco2)c(F)c1"
  SCALE UNIT: "nM"
  IC50: 27
- SMILES: "O=C(NO)c1ccc(Cn2nnc(Cc3ccccc3)n2)cc1"
  SCALE UNIT: "nM"
  IC50: 52
- SMILES: "NCc1ccc(-c2nnnn2Cc2ccc(C(=O)NO)cc2)cc1"
  SCALE UNIT: "nM"
  IC50: 129
- SMILES: "CCn1c(Sc2ccc(C(=O)NO)cc2)nnc1-c1ccc(F)cc1"
  SCALE UNIT: "nM"
  IC50: 25
- SMILES: "O=C(NO)c1ccc(Cn2nnnc2-c2ccccn2)cc1"
  SCALE UNIT: "nM"
  IC50: 4
- SMILES: "CN1CCN(S(=O)(=O)c2cccc(-c3nnc(Sc4c(F)cc(C(=O)NO)cc4F)n3C)c2)CC1"
  SCALE UNIT: "nM"
  IC50: 9
- SMILES: "O=C(NO)c1cc(F)c(Sc2nnc(-c3ccco3)n2Cc2ccccc2)c(F)c1"
  SCALE UNIT: "nM"
  IC50: 20
- SMILES: "O=C(NO)c1ccc(Sc2nnc(-c3c[nH]c4ccccc34)n2Cc2ccco2)cc1"
  SCALE UNIT: "nM"
  IC50: 47
- SMILES: "O=C(NO)c1ccc(Cn2nnnc2-c2cccc(S(F)(F)(F)(F)F)c2)cc1"
  SCALE UNIT: "nM"
  IC50: 162
